The source made the active and inactive calls.
Reported values: Kd for Receptor-interacting serine/threonine-protein kinase 2 (Homo sapiens, UniProt O43353), one per item.

Example cases with answers are listed next.
[[record]]
compound = "O=C1NC(=O)[C@@H](c2cn3c4c(cccc24)CCC3)[C@@H]1c1c[nH]c2ccccc12 [TIVANTINIB]"
recorded_result = "> 30 µM (inactive)"

[[record]]
compound = "CNC(=O)c1nn(C)c2c1C(C)(C)Cc1cnc(Nc3ccc(N4CCN(C)CC4)cc3)nc1-2"
recorded_result = "> 30 µM (inactive)"


Dear colleague, could you please provide Kd for the compounds listed below?
1. COc1cc2ncnc(Oc3cccc(NC(=O)Nc4cc(C(C)(C)C(F)(F)F)on4)c3)c2cc1OC
2. COc1ccc(S(=O)(=O)N(C(C)=O)c2ccccc2/C=C/c2cc[n+]([O-])cc2)cc1

["0.442 µM (active)", "> 30 µM (inactive)"]

====

Target: Mitogen-activated protein kinase kinase kinase kinase 2 (Homo sapiens); note: in the data inactive means no Kd found up to 30 µM
Sequence (Q12851 whole entry): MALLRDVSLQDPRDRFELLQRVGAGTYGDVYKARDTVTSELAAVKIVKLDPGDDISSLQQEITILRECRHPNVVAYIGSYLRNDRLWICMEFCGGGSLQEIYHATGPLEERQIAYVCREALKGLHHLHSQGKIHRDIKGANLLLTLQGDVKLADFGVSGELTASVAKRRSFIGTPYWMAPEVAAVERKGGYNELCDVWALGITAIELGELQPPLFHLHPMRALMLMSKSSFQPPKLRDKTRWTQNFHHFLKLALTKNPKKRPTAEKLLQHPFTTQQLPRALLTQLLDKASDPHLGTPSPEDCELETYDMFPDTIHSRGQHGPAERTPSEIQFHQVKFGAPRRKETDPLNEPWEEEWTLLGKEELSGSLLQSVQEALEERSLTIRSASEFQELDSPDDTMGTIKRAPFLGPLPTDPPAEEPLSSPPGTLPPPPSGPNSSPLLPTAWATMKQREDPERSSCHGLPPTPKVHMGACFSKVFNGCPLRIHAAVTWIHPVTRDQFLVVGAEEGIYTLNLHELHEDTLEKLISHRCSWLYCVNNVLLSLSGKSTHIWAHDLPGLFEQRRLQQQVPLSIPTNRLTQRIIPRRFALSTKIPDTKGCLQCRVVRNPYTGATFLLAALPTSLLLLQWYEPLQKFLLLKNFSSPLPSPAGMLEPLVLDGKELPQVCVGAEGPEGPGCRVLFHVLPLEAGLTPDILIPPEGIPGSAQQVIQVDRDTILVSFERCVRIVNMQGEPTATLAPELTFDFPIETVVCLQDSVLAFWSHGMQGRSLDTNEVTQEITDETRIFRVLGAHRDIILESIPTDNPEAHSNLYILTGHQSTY
Activity calls are given as the source filed them.
API: response.call in true (1) = active, false (0) = inactive

Check out these entries, answers already filled in.
[[record]]
record_smiles = "COc1ccc(S(=O)(=O)N(C(C)=O)c2ccccc2/C=C/c2cc[n+]([O-])cc2)cc1"
system_tested = "Mitogen-activated protein kinase kinase kinase kinase 2 (Homo sapiens)"
class = "false (0)"

[[record]]
record_smiles = "C[C@@H](N)c1ccc(C(=O)Nc2ccnc3[nH]ccc23)cc1"
system_tested = "Mitogen-activated protein kinase kinase kinase kinase 2 (Homo sapiens)"
class = "false (0)"

[[record]]
record_smiles = "C[C@H]1CNCCCN1S(=O)(=O)c1cccc2cncc(F)c12"
system_tested = "Mitogen-activated protein kinase kinase kinase kinase 2 (Homo sapiens)"
class = "false (0)"


Tell me the recorded outcome of this test for `Cn1cc(-c2cnc3ccc4ccc(CS(=O)(=O)NCc5ccccn5)cc4c(=O)c3c2)cn1` .
false (0)

Tell me the recorded outcome of this test for `COc1cc2ncnc(Oc3cccc(NC(=O)Nc4cc(C(C)(C)C(F)(F)F)on4)c3)c2cc1OC` .
true (1)
